Test system: HeLa
Test: MALAT1 nuclear FISH intensity, robust Z-score vs DMSO; higher = more nuclear MALAT1 lncRNA, active = -3 or less
Conditions: 10 µM; 6 h
Where a name gives a salt, the structure may show the parent alone.
measured-parameter: MALAT1 nuclear FISH intensity

compound=C[C@@H](Oc1cc(-c2cnn(C3CCNCC3)c2)cnc1N)c1c(Cl)ccc(F)c1Cl measured=1.19
compound=CN1CC[C@@H](NC(=O)Nc2ccc(C#N)cc2)C[C@@H]1c1nc2ccccc2[nH]1 measured=-0.295
compound=CNCCCC1c2ccccc2C=Cc2ccccc21 measured=-0.833
compound=CC[C@H]1OC(=O)[C@H](C)[C@@H](O[C@H]2C[C@@](C)(OC)[C@@H](O)[C@H](C)O2)[C@H](C)[C@@H](O[C@@H]2O[C@H](C)C[C@H](N(C)C)[C@H]2O)[C@](C)(O)C[C@@H](C)CN(C)[C@H](C)[C@@H](O)[C@]1(C)O measured=-0.745
compound="CC(COc1ccccc1)N(CCCl)Cc1ccccc1 (stereo unspecified)" measured=0.373
compound="N#Cc1cc2c(OCC(O)CN3CCN(C(c4ccccc4)c4ccccc4)CC3)cccc2[nH]1 (stereo unspecified)" measured=-0.269
compound=CCCCCCCCC#CCC#CCC#CCCCC(=O)O measured=-0.729
compound=CCc1nn(CCCN2CCN(c3cccc(Cl)c3)CC2)c(=O)n1CCOc1ccccc1 measured=-0.0539
compound=C[C@@H]1COCCN1c1cc(=O)n2c(n1)N(Cc1cncc(Cl)c1)[C@H](C(F)(F)F)CC2 measured=0.807
compound=CCCCCC=CCC=CCC=CCC=CCCCCCC(=O)O measured=0.532
compound=Cc1c(-c2ccccc2)oc2c(C(=O)OCCN3CCCCC3)cccc2c1=O measured=-0.0194
compound=Cc1cn([C@H]2C[C@H](N=[N+]=[N-])[C@@H](CO)O2)c(=O)[nH]c1=O measured=-0.0455
compound="COc1cc2nc(N3CCN(C(=O)c4ccco4)CC3)nc(N)c2cc1OC [Prazosin hydrochloride]" measured=-0.417
compound=CCN1CCN(C(=O)N[C@@H](C(=O)N[C@@H]2C(=O)N3[C@@H]2SC(C)(C)[C@@H]3C(=O)O)c2ccccc2)C(=O)C1=O measured=-0.27
compound=Fc1ccc(CNc2ncnc3ccc(F)cc23)cc1 measured=-1.16
compound="CCOC(=O)O[C@]1(C(=O)OCCl)CC[C@H]2[C@@H]3CCC4=CC(=O)C=C[C@]4(C)[C@H]3[C@@H](O)C[C@@]21C [Loteprednol Etabonate]" measured=1.33

* * *

System: HeLa
Assay: nuclear count per well, robust Z-score vs DMSO; higher = more cells (less toxicity)
Settings: 10 µM; 6 h
Reported nuclear count per well values are given for each entry in this list.
measured-parameter: nuclear count per well

compound="CCCCCCCCCCC[C@@H](C[C@@H]1OC(=O)[C@H]1CCCCCC)OC(=O)[C@H](CC(C)C)NC=O [Orlistat (Tetrahydrolipstatin)]" measured_parameter="nuclear count per well" measured=-0.622
compound="CCC(=O)OCC(=O)[C@@]1(OC(=O)CC)[C@@H](C)C[C@H]2[C@@H]3CCC4=CC(=O)C=C[C@]4(C)[C@@]3(Cl)[C@@H](O)C[C@@]21C [Beclomethasone Dipropionate]" measured_parameter="nuclear count per well" measured=-0.337
compound="O=C1CN2Cc3c(ccc(Cl)c3Cl)N=C2N1 [Anagrelide]" measured_parameter="nuclear count per well" measured=0.771
compound=CCCC(CCC)C(=O)O measured_parameter="nuclear count per well" measured=-0.0612
compound=CO[C@@]12[C@H](COC(N)=O)C3=C(C(=O)C(C)=C(N)C3=O)N1C[C@@H]1N[C@@H]12 measured_parameter="nuclear count per well" measured=0.712
compound=CC[C@H](C)C(=O)O[C@H]1CCC=C2C=C[C@H](C)[C@H](CC[C@@H]3C[C@@H](O)CC(=O)O3)[C@H]21 measured_parameter="nuclear count per well" measured=0.784
compound=C=C(CC)C(=O)c1ccc(OCC(=O)O)c(Cl)c1Cl measured_parameter="nuclear count per well" measured=-0.247
